Hello, the source for this data is the EternaBench riboswitch data, in case you need it.

- System: MS2 coat protein
- Assay Procedure: apparent Kd, MS2 coat protein; higher = weaker binding; RNA-MaP array; FMN 200 µM where present
- Condition Set: designed as: OFF switch for flavin mononucleotide; no ligand
Endpoint: apparent Kd (nM)
Answers are plain numbers, in nM.

Below, each entry is followed by its recorded apparent Kd result.
>>> df
                             query_sequence     endpoint  reading_unit  observed
0  AAAAUACAUGAGGAUCACCCAUGUUAGGAUAUCCAAGGUCUAACCCUCAGGGUUAGACGGAGAAGGGAUGUGGU  apparent Kd            nM      60.8
1  AUCGUUCGAGAGAAGGGAACAUGAGGAUCACCCAUGUUACCUCACCUGGUGACGGAACUCCAAGUUCAGGAUAUCUCGAGCAAU  apparent Kd            nM      5.38
2  UUGUUGUGAGGAUAUCCAAUAUAUGACAUGAGGAUCACCCAUGUUUCCACUCGUACCUCCGGAGAAGGCACUUGGU  apparent Kd            nM      35.5

Let us examine a further case.
# input Print MS2 coat protein apparent Kd for "UUUUACUGAGGAUAUACAUUUUUUUAUUUAUUUAUAAUAUUACAUGAGGAUCACCCAUGUAGAAGGCAGAUUUU" .
# output 27.4

* * *

- Tested on: MS2 coat protein
- Assay Procedure: apparent Kd, MS2 coat protein; higher = weaker binding; RNA-MaP array; FMN 200 µM where present
- Condition Set: designed as: OFF switch for flavin mononucleotide; no ligand
Is apparent Kd at least 20 nM? Then criterion met. If not, criterion not met.

                             query_sequence     discrete_label
0  UAUAUAAUUAAGAGCUGGUCCAAAACAUGAGGAUCACCCAUGUAGGAUAUCAGCACGAUAAGUGCUGAGAAGGACAUCCAGCUC  criterion not met
1  GUGUAGAUAGGAUAUGCGUGAGUCUAGCGAAGCUAGGCUCUACAUGAGGAUCACCCAUGUAGAAGGGUCUACAC      criterion met
2  GGAUAGGACAGAGGAUAUACGUGCUAGAGAUACUAGCAAAUUUUCCUCACAUGAGGAUCACCCAUGUAGAAGGCUGUCCUAUCG      criterion met

# input Confirm if apparent Kd reported for the sequence "CAAUUUAUAACAGGAUAUGUAUUACAAAAGUUAAUAGAAGGGUUUAAUACAUGAGGAUCACCCAUGUCAUGUGUCAUAAUUACC" is 20 nM or above.
# output criterion met

# input Confirm if apparent Kd reported for the sequence "UUUUUGUCAGGAUAUCGUGCAUACAACGAAAGUUCUAUGUGCGAGAAGGGACAUGAGGAUCACCCAUGUUACGG" is 20 nM or above.
# output criterion met

# input Confirm if apparent Kd reported for the sequence "CGUUAUUCAGGAUAUGGCGUGUUAUACAUGAGGAUCACCCAUGUAGAUCCUGGUUAGGCCUCAGAAGGGAAUGUUC" is 20 nM or above.
# output criterion met

# input Confirm if apparent Kd reported for the sequence "GCGUCAGAAUUAAUUGUGACAUACAGAAGGCAAUAGUUUAUUUCAGACAUGAGGAUCACCCAUGUUGAGGAUAUGUAUUUACUC" is 20 nM or above.
# output criterion not met

# input Confirm if apparent Kd reported for the sequence "CAUUAACAUGAGGAUCACCCAUGUGAGGAUAUGAUAUUACUUGGACAGCUGUGGUCAAUCAGAAGGCACAUCUU" is 20 nM or above.
# output criterion met

# input Confirm if apparent Kd reported for the sequence "UCAUAACAUGAGGAUCACCCAUGUCAGGAUAUGAUACUAUGUACUUCGGUACAUAGUAUCAGAAGGGACAUACU" is 20 nM or above.
# output criterion met

# input Confirm if apparent Kd reported for the sequence "UUUUUUCCUCAUGUACAUGAGGAACAUGAGGAUCACCCAUGUAGAAGGAUUUCCCUUAAAUUAAGAUAGGAUAUACAUAUUUUU" is 20 nM or above.
# output criterion met

# input Confirm if apparent Kd reported for the sequence "GUUUGGAGUGGAGGAUAUGCGGACGAACGAUAAGCAGAAGGCCACAUGAGGAUCACCCAUGUCGGCUGUGCCGGGUGGUUGACG" is 20 nM or above.
# output criterion met

# input Confirm if apparent Kd reported for the sequence "GAGCUAUGAGGAUAUGCAUAUAUACGGAUUCGUGUAGUACUACAUGAGGAUCACCCAUGUAGAAGGCGUGGCUG" is 20 nM or above.
# output criterion not met

# input Confirm if apparent Kd reported for the sequence "GUUAAGGUAGGAUAUACGAUAAUAUAGGGUAGAUAUAGAACACAUGAGGAUCACCCAUGUAGAAGGACCAAUUG" is 20 nM or above.
# output criterion met

# input Confirm if apparent Kd reported for the sequence "AAAAAGCGAGGAUAUACAUAGCUAAGACGUGUGAGCGAAAAACAUGAGGAUCACCCAUGUAGAAGGCGCAAAAA" is 20 nM or above.
# output criterion not met

# input Confirm if apparent Kd reported for the sequence "GGGCCGAUAGGAUAUACAUGAGGAUCACCCAUGUAUGCUUAGAAGCGGCAAUCCUUAUGUAGAAGGGUCAGGCU" is 20 nM or above.
# output criterion met

# input Confirm if apparent Kd reported for the sequence "UCUGGUCGAGGAUAUGCAAUCGUGCUUCGGCACGUAAGAUCACAUGAGGAUCACCCAUGUAGAAGGCGACCAGA" is 20 nM or above.
# output criterion met
